# Tested on: HeLa
# assay-comment: Cytotoxicity against human HeLa3 cell line in presence of ethanethiol by MTT assay
# Type: functional, cell-based
Below, each entry is listed with its recorded IC50.
Write the value in µM as a bare number.

Recorded results for 5 compounds are shown here.
{"compound": "O=C1CC(CCC#CCOC2CCCCO2)SS1 (centres undefined)", "target-desc": "HeLa", "IC50 [µM]": 20.1}
{"compound": "CC(C)(C)[Si](C)(C)O[C@@H]1[C@H](O[Si](C)(C)C(C)(C)C)[C@@H](C2CC(=O)SS2)O[C@H]1n1ccc(=O)[nH]c1=O (some centres undefined)", "target-desc": "HeLa", "IC50 [µM]": 7.84}
{"compound": "O=C1CC(CCc2ccccc2)[S+]([O-])S1 (centres undefined)", "target-desc": "HeLa", "IC50 [µM]": 24.8}
{"compound": "CC1(C)O[C@H]([C@H]2COC(C)(C)O2)[C@@H](C2CC(=O)S[S+]2[O-])O1 (some centres undefined)", "target-desc": "HeLa", "IC50 [µM]": 12.6}
{"compound": "CC(C)(C)[Si](C)(C)O[C@@H]1[C@H](O[Si](C)(C)C(C)(C)C)[C@@H](C2CC(=O)S[S+]2[O-])O[C@H]1n1ccc(=O)[nH]c1=O (some centres undefined)", "target-desc": "HeLa", "IC50 [µM]": 2.67}

Task: Let me know recorded IC50 for Cc1cn([C@H]2C[C@H](O)[C@@H](C3CC(=O)S[S+]3[O-])O2)c(=O)[nH]c1=O (some centres undefined) , thanks.
Result: 29.7

Task: Let me know recorded IC50 for Cc1cn([C@H]2C[C@H](O[Si](C)(C)C(C)(C)C)[C@@H](C3CC(=O)SS3)O2)c(=O)[nH]c1=O (some centres undefined) , thanks.
Result: 16.7

Task: Let me know recorded IC50 for O=C1CC(CCc2ccccc2)SS1 (centres undefined) , thanks.
Result: 65.5

Task: Let me know recorded IC50 for O=C1CC(CCC#CCOC2CCCCO2)[S+]([O-])S1 (centres undefined) , thanks.
Result: 8.33

Values compiled from ChEMBL document CHEMBL1146888.
